System: A549
assay-name: MTT in vitro cytotoxicity assay, A549
Format: cell-based
test-parameters: Homo sapiens, 48 h
result-type: IC50 (µM)
Field: numeric (µM). Do not append units.

Ask: Report the value of IC50 obtained on A549 for COC(=O)c1ccc2c(ccc3oc4cccc(CCC(=O)O)c4c(=O)c32)c1 [Compound 3b] .
Result: 51.5

====

Test system: SGC-7901
assay-name: MTT in vitro cytotoxicity assay, SGC-7901
Assay type: cell-based
test-parameters: Homo sapiens, 48 h
Protocol: Roswell Park Memorial Institute Medium (RPMI-1640) was used to culture BEL-7402 and SGC-7901 cell lines; and A549, HeLa and LO2 cells were cultured in Dulbecco’s Modified Eagle’s Medium (DMEM) containing 10% fetal bovine serum (FBS). […] The cytotoxicity test was carried out according to a method described in the literature. […] After 4 h, the absorbance at 490 nm was measured with a microplate reader. The IC50 values were calculated by SPSS (Statistical Product and Service Solutions) software.
result-type: pIC50
pIC50 is defined as minus the log10 of a concentration measured in mol/L.

Ask: Fill in reported pIC50 for this entry: COC(=O)c1ccc2c(ccc3oc4cccc(CCC(=O)O)c4c(=O)c32)c1
Result: 4.34

====

assay-name: Partition coefficient by shake flask method
Assay type: physicochemical
test-parameters: octanol / phosphate buffer (0.129 M NaCl, pH = 7.4)
result-type: logP
Form field (numeric): enter value without unit.

Ask: Annotate the molecule COC(=O)c1ccc2c(ccc3oc4cccc(CCC(=O)O)c4c(=O)c32)c1 [Compound 3b] with its measured logP.
Result: 0.822
